Measured values drawn from ChEMBL document CHEMBL3228011 for this set.

biological target: Thymidylate synthase (Homo sapiens); test: Competitive inhibition of thymidylate synthetase (unknown origin) in presence of 5,10-methylenetetrahydrofolate
Sequence (P04818 whole entry): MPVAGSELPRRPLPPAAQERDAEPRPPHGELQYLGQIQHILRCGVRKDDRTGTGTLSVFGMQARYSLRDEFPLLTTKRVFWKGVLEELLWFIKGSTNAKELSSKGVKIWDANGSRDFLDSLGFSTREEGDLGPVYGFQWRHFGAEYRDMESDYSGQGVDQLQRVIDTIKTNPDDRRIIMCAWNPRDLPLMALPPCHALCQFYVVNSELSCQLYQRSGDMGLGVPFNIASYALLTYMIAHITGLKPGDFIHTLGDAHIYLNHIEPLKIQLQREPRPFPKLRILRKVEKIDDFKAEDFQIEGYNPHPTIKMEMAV
reportedProperty: Ki (µM)
Give the value in µM but do not write µM after it.

Asked: // returns reported Ki for input O=c1[nH]c(=O)n([C@H]2C[C@H](O)[C@@H](COP(=O)(O)O)O2)cc1/C=C/C(F)(F)F
Given back: 8.6
